- subject.of.test: T1, MUC1 60-mer peptide NH2-(…)3-COOH (biotinylated in the ELISAs and selections)
- T1 construct: also called biotinylated MUC1 60-mer
- assay.text: ELISA, soluble Fab, biotinylated MUC1 60-mer; relative signal
outcome.measure: binding result

6B6 (Fab, V domains shown, PH1 Fab variant) VH: QVQLVQSGGGLVQPGGSLRLSCAASGFTFRSNAMGWVRQAPGKGLEWVSGISGSGGSTYYADSVKGRFTISRDNSKNTLYLQMNSLRAEDTAVYYCAKHTGGGVWDPIGYWGQGTLVTVSS VL: EIVLTQSPLSLPVTPGEPASISCRSSQSLLHSNGYTYLDWYLQKPGQSPQLLIYSGSHRASGVPDRFSGSVSGTDFTLRISRVEAEDVGVYYCMQGLQSPFTFGPGTKVDIKR yielded binding result of binds

11F9 (Fab, V domains shown, PH1 Fab variant) VH: QVQLVQSGGGLVQPGGSLRLSCAASGFTFRSNAMGWVRQAPGKGLEWVSGISGSGGSTYYADSVKGRFTISRDNSKNTLYLQMNSLRAEDTAVYYCTKHTGGGVWDPINYWGQGTLVTVSS VL: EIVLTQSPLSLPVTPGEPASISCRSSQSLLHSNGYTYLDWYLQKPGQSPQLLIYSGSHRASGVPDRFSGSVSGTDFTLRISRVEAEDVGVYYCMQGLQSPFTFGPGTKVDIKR yielded binding result of binds

11F2 (Fab, V domains shown, PH1 Fab variant) VH: QVQLVQSGGGLVQPGGSLRLSCAASGFTFRSNAMGWVRQAPGKGLEWVSGISGSGGSTYYADSVKGRFTISRDNSKNTLYLQMNSLRAEDTAVYYCAIHTGAGVWDPIRYWGQGTLVTVSS VL: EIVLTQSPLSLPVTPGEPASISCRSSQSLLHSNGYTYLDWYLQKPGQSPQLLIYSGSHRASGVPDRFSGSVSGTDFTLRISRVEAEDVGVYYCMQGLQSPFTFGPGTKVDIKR yielded binding result of binds

3F4 (Fab, V domains shown, PH1 Fab variant) VH: QVQLVQSGGGLVQPGGSLRLSCAASGFTFRSNAMGWVRQAPGKGLEWVSGISGSGGSTYYADSVKGRFTISRDNSKNTLYLQMNSLRAEDTAVYYCAKHTGGGVWDPIANWGQGTLVTVSS VL: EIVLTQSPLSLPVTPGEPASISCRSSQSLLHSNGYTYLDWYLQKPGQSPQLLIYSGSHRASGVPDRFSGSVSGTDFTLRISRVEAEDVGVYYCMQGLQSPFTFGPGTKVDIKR yielded binding result of binds

10E1 (Fab, V domains shown, PH1 Fab variant) VH: QVQLVQSGGGLVQPGGSLRLSCAASGFTFRSNAMGWVRQAPGKGLEWVSGISGSGGSTYYADSVKGRFTISRDNSKNTLYLQMNSLRAEDTAVYYCAKHTGGGVWDPIAYWGQGTLVTVSS VL: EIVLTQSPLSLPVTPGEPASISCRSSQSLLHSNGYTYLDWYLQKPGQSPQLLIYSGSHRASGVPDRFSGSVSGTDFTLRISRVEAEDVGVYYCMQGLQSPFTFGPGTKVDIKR yielded binding result of binds

Others:
5A6 (Fab, V domains shown, PH1 Fab variant) VH: QVQLVQSGGGLVQPGGSLRLSCAASGFTFRSNAMGWVRQAPGKGLEWVSGISGSGGSTYYADSVKGRFTISRDNSKNTLYLQMNSLRAEDTAVYYCVKHTGGGVWDPIDYWGQGTLVTVSS VL: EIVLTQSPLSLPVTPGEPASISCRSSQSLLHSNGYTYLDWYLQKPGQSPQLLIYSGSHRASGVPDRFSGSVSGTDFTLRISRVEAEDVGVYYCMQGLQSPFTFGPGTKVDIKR yielded binding result of binds

3F7 (Fab, V domains shown, PH1 Fab variant) VH: QVQLVQSGGGLVQPGGSLRLSCAASGFTFRSNAMGWVRQAPGKGLEWVSGISGSGGSTYYADSVKGRFTISRDNSKNTLYLQMNSLRAEDTAVYYCAKHTGGGVWDPIYYWGQGTLVTVSS VL: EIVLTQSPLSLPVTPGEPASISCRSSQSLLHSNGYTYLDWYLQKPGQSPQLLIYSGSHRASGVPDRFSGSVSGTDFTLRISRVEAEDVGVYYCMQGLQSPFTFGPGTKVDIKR yielded binding result of binds

3D7 (Fab, V domains shown, PH1 Fab variant) VH: QVQLVQSGGGLVQPGGSLRLSCAASGFTFRSNAMGWVRQAPGKGLEWVSGISGSGGSTYYADSVKGRFTISRDNSKNTLYLQMNSLRAEDTAVYYCAKHTGAGVWDPIDYWGQGTLVTVSS VL: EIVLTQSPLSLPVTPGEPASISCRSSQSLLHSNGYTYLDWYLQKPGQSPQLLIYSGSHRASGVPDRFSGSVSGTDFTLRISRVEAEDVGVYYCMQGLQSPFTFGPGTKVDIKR yielded binding result of binds

6A9 (Fab, V domains shown, PH1 Fab variant) VH: QVQLVQSGGGLVQPGGSLRLSCAASGFTFRSNAMGWVRQAPGKGLEWVSGISGSGGSTYYADSVKGRFTISRDNSKNTLYLQMNSLRAEDTAVYYCAKHTGSGVWDPINYWGQGTLVTVSS VL: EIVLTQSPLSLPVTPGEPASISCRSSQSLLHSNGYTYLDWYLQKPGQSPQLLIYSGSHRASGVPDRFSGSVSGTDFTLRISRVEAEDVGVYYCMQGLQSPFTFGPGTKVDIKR yielded binding result of binds

6B3 (Fab, V domains shown, PH1 Fab variant) VH: QVQLVQSGGGLVQPGGSLRLSCAASGFTFRSNAMGWVRQAPGKGLEWVSGISGSGGSTYYADSVKGRFTISRDNSKNTLYLQMNSLRAEDTAVYYCAKHTGGGVWDPIGHWGQGTLVTVSS VL: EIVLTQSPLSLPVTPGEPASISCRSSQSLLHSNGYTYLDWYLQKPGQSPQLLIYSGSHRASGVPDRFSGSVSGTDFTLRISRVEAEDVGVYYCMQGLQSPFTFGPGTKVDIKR yielded binding result of binds

These entries and their values trace back to patent US20020146750A1.
